Reported GI50 values for a set of molecules
Test system: KM-20L2
assay_details: NCI tumour cell line growth inhibition, 48 h
Calls of active or inactive are those of the source. No stated cut-off is given here; in the data, active = GI50 up to about 1.1 µM and inactive = higher.

molecule	result
CCOC(=O)/C(=C/c1ccc(N(C)C)cc1)N(CC)CC	> 100 µM (inactive)
NC(CCCC(N)P(=O)(O)c1ccccc1)P(=O)(O)c1ccccc1 (stereo unspecified)	> 261 µM (inactive)
COc1cc(O)c2c(c1)C(=O)C1=C(C2=O)C(O)C[C@@](C)(O)C1 (stereo partly specified)	3.36 µM (inactive)

## Input # GI50 lookup, item CCOC(=O)/C=C1\Oc2ccccc2C1(C)O (stereo unspecified)
## Output > 100 µM (inactive)

## Input Would you kindly repeat that for O=C1c2ccccc2C(=O)N1CCN(CCN1C(=O)c2ccccc2C1=O)Cn1cccn1 ?
## Output > 100 µM (inactive)

## Input Would you kindly repeat that for NC(Cc1cc(I)c(O)c(I)c1)C(=O)O (stereo unspecified) ?
## Output > 500 µM (inactive)

----------
Reported GI50 values for a set of compounds
Test system: SK-MEL-2
assay_details: NCI tumour cell line growth inhibition, 48 h
Active and inactive are the calls of the source. No stated cut-off is given here; in the data, active = GI50 up to about 1.1 µM and inactive = higher.

compound	assay_system	GI50
CCOC(=O)/C(=C/c1ccc(N(C)C)cc1)N(CC)CC	SK-MEL-2	58.2 µM (inactive)
COC1/C=C(C)/C=C/C(C)/C=C/C(=O)OC(/C(C)=C/C=C(\C)CNC(=O)[C@H](CO)NC=O)C(C)/C=C/C=C/C(OC)CC/C=C(C)/C=C/C1 (some centres not stated)	SK-MEL-2	0.0341 µM (active)
O=C(O)c1cccc(C(=O)O)c1[S+]([O-])Cc1ccccc1 (configuration not stated)	SK-MEL-2	> 100 µM (inactive)
CC1OC(n2cc(F)c(=O)[nH]c2=O)CCC1O (configuration not stated)	SK-MEL-2	> 100 µM (inactive)
Cn1ncc2c(Nc3cccc(Cl)c3)nc(Nc3cccc(Cl)c3)nc21	SK-MEL-2	14.9 µM (inactive)
CCn1c(SCC(=O)N/N=C/c2ccccc2)nc2ccccc2c1=O	SK-MEL-2	11.7 µM (inactive)
COCCCNC(=O)C1=C(C)NC(C)=C(C(=O)NCCCOC)C1	SK-MEL-2	> 100 µM (inactive)
COc1ccc(C2C=C(c3ccccc3)Nc3nnnn32)cc1 (configuration not stated)	SK-MEL-2	38.7 µM (inactive)

## Input # GI50 lookup, item O=C1OC(c2ccccc2Br)=N/C1=C/c1ccccc1
## Output 18.8 µM (inactive)

## Input Would you kindly repeat that for C=CCCC(C)N(C(=O)OC(C)(C)C)S(=O)(=O)c1ccc(C)cc1 (configuration not stated) ?
## Output > 100 µM (inactive)

## Input Would you kindly repeat that for [N-]=[N+]=CC(=O)CCC(NC(=O)C(CCC(=O)C=[N+]=[N-])NC(=O)CCC(N)C(=O)O)C(=O)O (configuration not stated) ?
## Output > 100 µM (inactive)

## Input Would you kindly repeat that for CNC1CC(n2cc(C)c(=O)[nH]c2=O)OC1CO (configuration not stated) ?
## Output > 100 µM (inactive)

## Input Would you kindly repeat that for CCC1(CC)C(=O)N(C(=O)c2ccc(Cl)cc2)N(C(=O)c2ccccc2Cl)C1=O ?
## Output > 100 µM (inactive)

## Input Would you kindly repeat that for O=C(/C=C/c1ccccc1)Oc1cccc(O)c1 ?
## Output > 100 µM (inactive)

## Input Would you kindly repeat that for COC1OC(C)C(O)CC1OS(=O)(=O)c1ccc(C)cc1 (configuration not stated) ?
## Output > 100 µM (inactive)

## Input Would you kindly repeat that for Cc1ccc2c(c1C)C(=O)/C(=C/c1ccccc1C(=O)O)C2 ?
## Output > 100 µM (inactive)

## Input Would you kindly repeat that for COc1cc(OC)c(-c2cc(=O)c3c(OC)c(OC)c(OC)c(OC)c3o2)cc1OC ?
## Output > 100 µM (inactive)

## Input Would you kindly repeat that for CCOC(=O)C1C2CCC1CC(=NNc1ccc([N+](=O)[O-])cc1[N+](=O)[O-])C2 (configuration not stated) ?
## Output > 50 µM (inactive)

----------
Reported GI50 values for a set of compounds
Test system: SNB-78
assay_details: NCI tumour cell line growth inhibition, 48 h
The source made the active and inactive calls. No stated cut-off is given here; in the data, active = GI50 up to about 1.1 µM and inactive = higher.

compound	assay_system	GI50
CCc1c(Cc2[nH]c(Cc3[nH]c(C=O)c(C)c3CC)c(CC)c2CC)[nH]c(C=O)c1C	SNB-78	> 100 µM (inactive)
CC(=O)OC12C=CC(=O)N1c1ccccc1C(=O)O2 (configuration not stated)	SNB-78	32.1 µM (inactive)
N#Cc1ccc(/C=N/C23CC4CC(CC(C4)C2)C3)cc1	SNB-78	> 100 µM (inactive)
CCCc1[nH]c(SCCCCCCCCSc2nc(-c3ccc(F)cc3)c(CCC)[nH]2)nc1-c1ccc(F)cc1	SNB-78	26.2 µM (inactive)
CC1OC(n2cc(F)c(=O)[nH]c2=O)CCC1O (configuration not stated)	SNB-78	> 100 µM (inactive)
O=C(Nc1ccccc1SC(/C=C/NNC1=NN=C(c2ccccc2)C(c2ccccc2)N1)c1ccccc1)c1ccc(Cl)cc1Cl (configuration not stated)	SNB-78	87.5 µM (inactive)
O=C1c2ccccc2C(=O)N1CCN(CCN1C(=O)c2ccccc2C1=O)Cn1cccn1	SNB-78	> 100 µM (inactive)
[N-]=[N+]=CC(=O)CCC(NC(=O)C(CCC(=O)C=[N+]=[N-])NC(=O)CCC(N)C(=O)O)C(=O)O (configuration not stated)	SNB-78	> 100 µM (inactive)
Cc1ccccc1-c1c(N)nc(NC#N)nc1C(=O)Nc1ccccc1	SNB-78	> 100 µM (inactive)
CCN(CC)CCNc1ccc(C)c2sc3ccc(O)cc3c(=O)c12	SNB-78	1.76 µM (inactive)

## Input # GI50 lookup, item C[C@H]1COC(c2ccccn2)=N1
## Output > 100 µM (inactive)

## Input Would you kindly repeat that for CCOC(=O)/C(=C/c1ccc(N(C)C)cc1)N(CC)CC ?
## Output 69.3 µM (inactive)

## Input Would you kindly repeat that for CC1=N/C(=C/c2ccc3c(c2)OCO3)C(=O)O1 ?
## Output > 100 µM (inactive)

## Input Would you kindly repeat that for CCN1CCC(O)(/C=C/c2ccccc2)C(C(=O)/C=C/c2ccccc2)C1 (configuration not stated) ?
## Output 3.33 µM (inactive)

----------
Test system: KM-20L2
assay_details: NCI tumour cell line growth inhibition, 48 h
Activity calls are given as the source filed them. Cut-off read from the data, not from the text of the source: active = GI50 up to about 1.1 µM and inactive = higher.
Your answer must be one of the following: 1.0 (active), 0.0 (inactive)

molecule	discrete_label
CC(C)(O)/C=C/C(=O)[C@](C)(O)[C@H]1[C@H](O)C[C@@]2(C)[C@@H]3CC=C4[C@@H](C[C@H](O)C(=O)C4(C)C)[C@]3(C)C(=O)C[C@]12C	1.0
NCCCCNCCCNC(=O)c1nc(-c2nc(CCN)sc2Cl)sc1Cl	0.0

## Input Dear colleague, could you share the recorded outcome for CCOC(=O)c1nc2ccc(Cl)cc2c2c1CCO2 when you have a moment?
## Output 0.0

----------
Reported GI50 values for a set of compounds
Test system: A549
assay_details: NCI tumour cell line growth inhibition, 48 h
The source made the active and inactive calls. Cut-off read from the data, not from the text of the source: active = GI50 up to about 1.1 µM and inactive = higher.

compound	GI50
C=C1C2CC[C@@](C)(O)C2[C@H]2OC(=O)C(=C)[C@@H]2C[C@H]1O (some centres undefined)	29.3 µM (inactive)

## Input # GI50 lookup, item C/C(=N\N=C(/S)N1CCCCCC1)c1cccc[n+]1[O-]
## Output 4.36 µM (inactive)

## Input Would you kindly repeat that for Cc1cc(NS(=O)(=O)c2ccc(Nc3c4ccccc4nc4c(C(=O)NCCN(C)C)cccc34)cc2)no1 ?
## Output 3.29 µM (inactive)

## Input Would you kindly repeat that for O=C(Nc1nc2c(=O)[nH]cnc2s1)c1ccccc1 ?
## Output 81.7 µM (inactive)

## Input Would you kindly repeat that for CC(ON1[C@](C)(c2ccccc2)CC[C@@]1(C)c1ccccc1)c1ccccc1 (some centres undefined) ?
## Output 30.9 µM (inactive)

## Input Would you kindly repeat that for CC(C)=CCc1c(O)c(CC=C(C)C)c2oc(-c3ccc(O)cc3O)c(CC=C(C)C)c(=O)c2c1O ?
## Output 5.4 µM (inactive)

----------
Reported GI50 values for a set of compounds
System: A498
assay_details: NCI tumour cell line growth inhibition, 48 h
The source made the active and inactive calls. Cut-off read from the data, not from the text of the source: active = GI50 up to about 1.1 µM and inactive = higher.

compound	GI50
Cn1cncc1CC1COC(=O)C1C(O)c1ccccc1 (stereo not given)	> 100 µM (inactive)

## Input Lookup: GI50 / A498 / NCCCCNCCCNC(=O)c1nc(-c2nc(CCN)sc2Cl)sc1Cl
## Output > 100 µM (inactive)

## Input Would you kindly repeat that for CC(C)(C)OC(=O)NCC(c1c[nH]c2ccc(Br)cc12)c1c[nH]c2ccc(Br)cc12 ?
## Output 14.5 µM (inactive)

## Input Would you kindly repeat that for COC(=O)c1ccc2n[se]nc2c1 ?
## Output > 100 µM (inactive)

## Input Would you kindly repeat that for O=c1cc(NCc2ccncc2)[nH]c(=O)[nH]1 ?
## Output > 100 µM (inactive)

## Input Would you kindly repeat that for N#Cc1ccc(/C=N/C23CC4CC(CC(C4)C2)C3)cc1 ?
## Output > 100 µM (inactive)

## Input Would you kindly repeat that for Cn1nc(-c2ccccc2)nc1[N+](=O)[O-] ?
## Output > 10 µM (inactive)

## Input Would you kindly repeat that for COc1ccc(/C=c2/s/c(=C(\C#N)c3nc4ccccc4[nH]3)n(-c3ccccc3)c2=O)cc1 ?
## Output 24.8 µM (inactive)

## Input Would you kindly repeat that for O=C1C(=O)C2(CC1S(=O)(=O)c1ccccc1)c1ccccc1-c1ccccc12 (stereo not given) ?
## Output 19.1 µM (inactive)

## Input Would you kindly repeat that for O=C1c2ccccc2C(=O)N1CCN(CCN1C(=O)c2ccccc2C1=O)Cn1cccn1 ?
## Output > 100 µM (inactive)

## Input Would you kindly repeat that for C[As](C)SCC(NC(=O)CCC(N)C(=O)O)C(=O)NCC(=O)O.c1ccncc1 (stereo not given) ?
## Output 0.437 µM (active)

## Input Would you kindly repeat that for CCNCCCCNCC ?
## Output > 3750 µM (inactive)

## Input Would you kindly repeat that for COC(=O)C1(F)C(=O)NC(=O)NC1O (stereo not given) ?
## Output > 100 µM (inactive)

## Input Would you kindly repeat that for COc1ccc(C(c2ccc(C(C)C)cc(=O)c2O)c2c(O)cc3oc(-c4ccccc4)cc(=O)c3c2O)cc1 (stereo not given) ?
## Output 18.6 µM (inactive)

## Input Would you kindly repeat that for COc1ccc(NC(=O)C(C#N)=C(SC)SC)cc1 ?
## Output > 100 µM (inactive)
